Organism: Homo sapiens
Assay: Selectivity ratio of IC50 for human CYP11B2 to IC50 for human CYP11B1
Decision: Ratio IC50 compared against 10; not below it gives true, below it gives false.

Below, 3 molecules whose answers are already recorded.
[[record]]
sample_smiles = "c1cc(-c2ccc(Cn3ccnc3)cn2)ccn1"
assigned_label = "false"

[[record]]
sample_smiles = "COc1ccccc1-c1ccc(Cn2ccnc2)cn1"
assigned_label = "true"

[[record]]
sample_smiles = "c1ccc(-c2cc(Cn3ccnc3)cnc2-c2ccccc2)cc1"
assigned_label = "false"


Query: Please indicate if the recorded Ratio IC50 for `Nc1cccc(-c2ccc(Cn3ccnc3)cn2)c1` meets or exceeds 10.
Reply: true

Query: One more molecule: `c1ccc2c(-c3ccc(Cn4ccnc4)cn3)cccc2c1`
Reply: true

Query: One more molecule: `Oc1ccc(-c2ccc(Cn3ccnc3)cn2)cc1F`
Reply: true

Query: One more molecule: `c1ccc(-c2ccc(Cn3ccnc3)cn2)cc1`
Reply: true

FYI, the data here is from ChEMBL document CHEMBL2010745.
